- Study Target: FGFR1-BCR Ba/F3 cells (Homo sapiens, UniProt P11362)
- Sequence (P11362 22-822 limits assumed, change not shown): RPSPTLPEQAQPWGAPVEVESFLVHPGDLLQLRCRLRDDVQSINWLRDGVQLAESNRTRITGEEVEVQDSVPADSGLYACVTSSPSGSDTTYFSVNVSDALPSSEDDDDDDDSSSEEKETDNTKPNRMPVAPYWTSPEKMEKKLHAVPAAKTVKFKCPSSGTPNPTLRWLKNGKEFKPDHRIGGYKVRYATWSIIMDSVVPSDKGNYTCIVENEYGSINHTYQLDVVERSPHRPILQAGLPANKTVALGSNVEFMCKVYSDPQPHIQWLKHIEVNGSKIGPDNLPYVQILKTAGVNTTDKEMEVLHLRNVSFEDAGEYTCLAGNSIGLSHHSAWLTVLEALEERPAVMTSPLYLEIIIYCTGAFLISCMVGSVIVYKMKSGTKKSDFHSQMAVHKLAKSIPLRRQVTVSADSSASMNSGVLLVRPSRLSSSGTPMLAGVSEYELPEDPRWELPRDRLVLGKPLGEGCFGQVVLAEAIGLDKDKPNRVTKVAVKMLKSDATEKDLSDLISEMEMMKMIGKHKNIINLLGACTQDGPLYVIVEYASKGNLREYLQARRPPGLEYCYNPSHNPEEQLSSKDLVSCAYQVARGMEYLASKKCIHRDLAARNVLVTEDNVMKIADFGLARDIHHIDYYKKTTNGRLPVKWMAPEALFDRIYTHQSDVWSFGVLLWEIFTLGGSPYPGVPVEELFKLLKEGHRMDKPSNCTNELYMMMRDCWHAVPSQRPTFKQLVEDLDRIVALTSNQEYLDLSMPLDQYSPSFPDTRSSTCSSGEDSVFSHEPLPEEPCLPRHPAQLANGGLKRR
- Assay Overview: Ba/F3 cell viability assay (CellTiter-Glo 2.0), FGFR1-BCR Ba/F3
- Assay type: cell-based
- Condition Info: read-out: Ba/F3 Cells FGFR1 (IC50 nM), 48 hours, Cell Titer Glo 2.0
Quick reference: IC50 of the listed items.

Recorded IC50, per entry:
INSERT INTO results (molecule, study_target, readout, measurement) VALUES
  ('CCC(=O)N1CCN(c2ccc(-c3n[nH]c4ccc(O[C@H](C)c5c(Cl)cncc5Cl)cc34)cn2)CC1 [Example 9]', 'FGFR1-BCR Ba/F3 cells (Homo sapiens, UniProt P11362)', 'IC50', '100 to 300 nM'),
  ('Cc1cnnc(C)c1[C@@H](C)Oc1ccc2[nH]nc(-c3cnc(N4CC5(CCS(=O)(=O)C5)C4)nc3)c2c1 [Example 141]', 'FGFR1-BCR Ba/F3 cells (Homo sapiens, UniProt P11362)', 'IC50', '> 300 nM'),
  ('CCOC(=O)N1CC2(C1)CN(c1ccc(-c3n[nH]c4ccc(O[C@H](C)c5c(Cl)cncc5Cl)cc34)cn1)C2 [Example 121]', 'FGFR1-BCR Ba/F3 cells (Homo sapiens, UniProt P11362)', 'IC50', '100 to 300 nM'),
  ('C[C@@H](Oc1ccc2[nH]nc(-c3ccc(N4CCS(=O)(=O)CC4)nc3)c2c1)c1c(Cl)cncc1Cl [Example 1]', 'FGFR1-BCR Ba/F3 cells (Homo sapiens, UniProt P11362)', 'IC50', '100 to 300 nM'),
  ('C[C@@H](Oc1ccc2[nH]nc(-c3ccc(N4CCC5(CC4)CN(C)CC(=O)N5C)nc3)c2c1)c1c(Cl)cncc1Cl [Example 98]', 'FGFR1-BCR Ba/F3 cells (Homo sapiens, UniProt P11362)', 'IC50', '20 to 100 nM');

Task: Please tell me the measured IC50 for C[C@@H](Oc1ccc2[nH]nc(-c3cnn(C4CCN(C5COC5)CC4)c3)c2c1)c1cc(F)cc(F)c1 [Example 168] ; system: FGFR1-BCR Ba/F3 cells (Homo sapiens, UniProt P11362).
Result: > 300 nM

Task: GET IC50 | system: FGFR1-BCR Ba/F3 cells (Homo sapiens, UniProt P11362) | item: C[C@@H](Oc1ccc2[nH]nc(-c3ccc(N4CC5(CCN5S(C)(=O)=O)C4)nc3)c2c1)c1c(Cl)cncc1Cl [Example 100]
Result: > 300 nM

====

- Study Target: FGFR1 (Homo sapiens (Human), UniProt P11362)
- Assay Overview: Kinase assay, binding constants (Kd), kinase-tagged T7 phage, qPCR
Readout: Kd

For orientation, consider the following solved cases.
INSERT INTO measurements (compound, readout, measurement) VALUES
  ('C[C@@H](Oc1ccc2[nH]nc(-c3cnn(C4CCNCC4)c3)c2c1)c1c(Cl)cncc1Cl', 'Kd', '1 to 20 nM'),
  ('Cc1ncc(Cl)c([C@@H](C)Oc2ccc3[nH]nc(-c4cnn(C5CCS(=O)(=O)CC5)c4)c3c2)c1Cl', 'Kd', '20 to 100 nM'),
  ('C[C@@H](Oc1ccc2[nH]nc(-c3cnn(C4CNC4)c3)c2c1)c1c(Cl)cncc1Cl', 'Kd', '1 to 20 nM'),
  ('Cc1ncc(Cl)c([C@@H](C)Oc2ccc3[nH]nc(-c4cnc(N5CC6(CNC6)C5)nc4)c3c2)c1Cl', 'Kd', '20 to 100 nM'),
  ('COc1cc(-c2n[nH]c3ccc(O[C@H](C)c4c(C)cnnc4C)cc23)cnc1N1CCCC1', 'Kd', '> 300 nM'),
  ('C[C@@H](Oc1ccc2[nH]nc(-c3cnc(N4CCC4)c(C#N)c3)c2c1)c1c(Cl)cnc(F)c1Cl', 'Kd', '> 300 nM');

Task: Please report Kd for the following compound: Cc1cnnc(C)c1[C@@H](C)Oc1ccc2[nH]nc(-c3ccc(N4CC5(CCS(=O)(=O)C5)C4)nc3)c2c1
Result: 1 to 20 nM

Task: Please supply the value of reported Kd for the item Cc1ncc(Cl)c([C@@H](C)Oc2ccc3[nH]nc(-c4cnc(N5CC(O)C5)c(C#N)c4)c3c2)c1Cl
Result: > 300 nM

Task: Return value of Kd for input C[C@@H](Oc1ccc2[nH]nc(-c3ccc(N4CCC[C@H]4CO)nc3)c2c1)c1c(Cl)cncc1Cl , no commentary.
Result: 1 to 20 nM

====

Reported Kd values for the following molecules.
- Study Target: FGFR3 (V555M) (Homo sapiens (Human), UniProt P22607, V555M)
- Sequence (P22607 23-806 V555M): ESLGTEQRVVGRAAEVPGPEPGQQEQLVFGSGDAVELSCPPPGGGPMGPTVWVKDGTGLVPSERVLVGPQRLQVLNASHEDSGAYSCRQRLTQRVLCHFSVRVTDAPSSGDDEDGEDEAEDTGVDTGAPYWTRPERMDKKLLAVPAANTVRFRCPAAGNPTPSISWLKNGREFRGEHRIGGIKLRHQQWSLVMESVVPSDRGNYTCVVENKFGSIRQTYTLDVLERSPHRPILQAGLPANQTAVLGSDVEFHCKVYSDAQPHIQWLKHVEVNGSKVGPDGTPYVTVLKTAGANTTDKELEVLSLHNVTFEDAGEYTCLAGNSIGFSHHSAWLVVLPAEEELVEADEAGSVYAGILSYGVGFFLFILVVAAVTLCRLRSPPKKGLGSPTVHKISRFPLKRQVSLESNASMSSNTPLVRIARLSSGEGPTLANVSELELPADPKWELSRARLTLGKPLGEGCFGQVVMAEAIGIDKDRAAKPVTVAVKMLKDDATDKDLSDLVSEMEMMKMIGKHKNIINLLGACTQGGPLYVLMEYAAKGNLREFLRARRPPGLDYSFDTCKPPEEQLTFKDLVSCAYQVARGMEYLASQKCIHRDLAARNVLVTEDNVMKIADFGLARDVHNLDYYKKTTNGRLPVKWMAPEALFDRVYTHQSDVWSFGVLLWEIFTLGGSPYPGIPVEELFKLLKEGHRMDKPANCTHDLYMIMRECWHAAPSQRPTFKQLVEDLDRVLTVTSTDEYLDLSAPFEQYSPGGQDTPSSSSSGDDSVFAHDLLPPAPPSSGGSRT
- Assay Overview: Kinase assay, binding constants (Kd), kinase-tagged T7 phage, qPCR
- Condition Info: V555M mutant

INSERT INTO results (molecule, measurement) VALUES
  ('COc1cc(-c2n[nH]c3ccc(O[C@H](C)c4c(C)cnnc4C)cc23)cnc1N1CCC1', '20 to 100 nM'),
  ('C[C@@H](Oc1ccc2[nH]nc(-c3cnc(N4CCOCC4)c(C#N)c3)c2c1)c1c(Cl)cncc1Cl', '1 to 20 nM'),
  ('C[C@@H](Oc1ccc2[nH]nc(-c3cnn(C4CCN(C(=O)CN(C)C)CC4)c3)c2c1)c1c(Cl)cncc1Cl', '1 to 20 nM');

Now let's try a different one.
Task: Report value: Kd, system: FGFR3 (V555M) (Homo sapiens (Human), UniProt P22607, V555M), molecule: C[C@@H](Oc1ccc2[nH]nc(-c3ccc(N4CC5(C4)CN(S(C)(=O)=O)C5)nc3)c2c1)c1c(Cl)cnnc1Cl [Example 246]
Result: 1 to 20 nM

====

- Study Target: FGFR3-BAIAP2L1 Ba/F3 cells (Homo sapiens, UniProt P22607)
- Sequence (P22607 23-806 limits assumed, change not shown): as the sequence (P22607 23-806 V555M) above, with M533V counted along it
- Assay Overview: Ba/F3 cell viability assay (CellTiter-Glo 2.0), FGFR3-BAIAP2L1 Ba/F3
- Type: cell-based
- Condition Info: FGFR3 > FGFR1 selectivity ratio in Ba/F3 FGFR fusion cell based assays
Readout: Ba/F3 FGFR1/FGFR3 Selectivity

The cases that follow already have their Ba/F3 FGFR1/FGFR3 Selectivity on record.
INSERT INTO results (molecule, readout, measurement) VALUES
  ('C[C@@H](Oc1ccc2[nH]nc(-c3cnc(N4CCC5(CC4)C(=O)NCCN5C)nc3)c2c1)c1c(Cl)cncc1Cl [Example 58]', 'Ba/F3 FGFR1/FGFR3 Selectivity', 11),
  ('C[C@@H](Oc1ccc2[nH]nc(-c3cnc(N4CC5(C4)CN(S(C)(=O)=O)C5)nc3)c2c1)c1c(Cl)cncc1Cl [Example 119]', 'Ba/F3 FGFR1/FGFR3 Selectivity', 9),
  ('C[C@H](Oc1ccc2[nH]nc(-c3ccc(N4CC5(C4)CN(S(C)(=O)=O)C5)nc3)c2c1)c1c(Cl)cncc1Cl [Example 160]', 'Ba/F3 FGFR1/FGFR3 Selectivity', 17);

Task: Let me know recorded Ba/F3 FGFR1/FGFR3 Selectivity for C[C@@H](Oc1ccc2[nH]nc(-c3cnc(N4CCCN(S(C)(=O)=O)CC4)nc3)c2c1)c1c(Cl)cncc1Cl [Example 63] , thanks.
Result: 16

====

// values below are reported IC50
- Study Target: FGFR1-BCR Ba/F3 cells (Homo sapiens)
- Assay Overview: Ba/F3 cell viability assay (CellTiter-Glo 2.0), FGFR1-BCR Ba/F3
- Type: cell-based
- Condition Info: read-out: Ba/F3 Cells FGFR1 (IC50 nM), 48 hours, Cell Titer Glo 2.0

Below are worked cases with known answers.
INSERT INTO measurements (compound, measurement) VALUES
  ('C[C@@H](Oc1ccc2[nH]nc(-c3ccc(N4CCC5(CCN(C)C5)CC4)nc3)c2c1)c1c(Cl)cncc1Cl [Example 32]', '100 to 300 nM'),
  ('C[C@@H](Oc1ccc2[nH]nc(-c3cnn(C4CCN(C(=O)CCN(C)C)CC4)c3)c2c1)c1c(Cl)cncc1Cl [Example 82]', '100 to 300 nM'),
  ('Cc1ncc(Cl)c([C@@H](C)Oc2ccc3[nH]nc(-c4cnn(C5CCN(C6COC6)CC5)c4)c3c2)c1Cl [Example 94]', '100 to 300 nM');

Now consider the entry below.
Task: Assign IC50 to the following record: C[C@@H](Oc1ccc2[nH]nc(-c3ccc(N4CCC5(CCOC5)CC4)nc3)c2c1)c1c(Cl)cncc1Cl [Example 28]
Result: > 300 nM

====

Property: Ba/F3 FGFR1/FGFR3 Selectivity; scope: individual compounds
- Study Target: FGFR3-BAIAP2L1 Ba/F3 cells (Homo sapiens)
- Assay Overview: Ba/F3 cell viability assay (CellTiter-Glo 2.0), FGFR3-BAIAP2L1 Ba/F3
- Assay type: cell-based
- Condition Info: FGFR3 > FGFR1 selectivity ratio in Ba/F3 FGFR fusion cell based assays
Please reply with the number alone, leaving off any unit.

INSERT INTO results (smiles_code, study_target, readout, measurement) VALUES
  ('C[C@@H](Oc1ccc2[nH]nc(-c3ccc(N4CCN(C)CC4=O)nc3)c2c1)c1c(Cl)cncc1Cl', 'FGFR3-BAIAP2L1 Ba/F3 cells (Homo sapiens)', 'Ba/F3 FGFR1/FGFR3 Selectivity', 21),
  ('COC(=O)N1CCCC2(C1)CN(c1ccc(-c3n[nH]c4ccc(O[C@H](C)c5c(Cl)cncc5Cl)cc34)cn1)C2', 'FGFR3-BAIAP2L1 Ba/F3 cells (Homo sapiens)', 'Ba/F3 FGFR1/FGFR3 Selectivity', 16),
  ('C[C@@H](Oc1ccc2[nH]nc(-c3cnn(C4CCN(C5CCC5)CC4)c3)c2c1)c1c(Cl)cncc1Cl', 'FGFR3-BAIAP2L1 Ba/F3 cells (Homo sapiens)', 'Ba/F3 FGFR1/FGFR3 Selectivity', 10);

Note: attention shifts to another entry.
Task: Respond only with Ba/F3 FGFR1/FGFR3 Selectivity recorded for C[C@@H](Oc1ccc2[nH]nc(-c3ccc(N4CC5CC(C4)N5)nc3)c2c1)c1c(Cl)cncc1Cl
Result: 14
